target: T1, ActRIIa receptor-Fc fusion (UniProt P27037 20-134, limits assumed); test: ELISA-like plate assay, captured BMP-7 from conditioned media, receptor-Fc detection
T1 construct: BMP receptor-Fc fusion used at 5 ug/mL
T1 sequence (P27037 20-134 limits assumed): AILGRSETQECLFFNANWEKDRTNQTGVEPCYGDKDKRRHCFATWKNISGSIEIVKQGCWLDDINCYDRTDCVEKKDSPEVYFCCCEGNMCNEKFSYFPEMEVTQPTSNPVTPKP
Measured Property: ActRIIa binding (relative to wild type = 1.0)

INSERT INTO results (binder, value_reported) VALUES
  ('BMP-7 variant L21R (ligand, In conditioned media; numbering on mature BMP-7) STGGKQRSQNRSKTPKNQEARRMASVAENSSSDQRQACKKHELYVSFRDLGWQDWIIAPEGYAAYYCEGECAFPLNSYMNATNHAIVQTLVHFINPETVPKPCCAPTQLNAISVLYFDDSSNVILKKYRNMVVRACGCH', '0.84 relative to wild type'),
  ('BMP-7 variant E60H (ligand, In conditioned media; numbering on mature BMP-7) STGGKQRSQNRSKTPKNQEALRMASVAENSSSDQRQACKKHELYVSFRDLGWQDWIIAPHGYAAYYCEGECAFPLNSYMNATNHAIVQTLVHFINPETVPKPCCAPTQLNAISVLYFDDSSNVILKKYRNMVVRACGCH', '0.86 relative to wild type'),
  ('BMP-7 variant L90G (ligand, In conditioned media; numbering on mature BMP-7) STGGKQRSQNRSKTPKNQEALRMASVAENSSSDQRQACKKHELYVSFRDLGWQDWIIAPEGYAAYYCEGECAFPLNSYMNATNHAIVQTGVHFINPETVPKPCCAPTQLNAISVLYFDDSSNVILKKYRNMVVRACGCH', '0.87 relative to wild type'),
  ('BMP-7 variant Q53K (ligand, In conditioned media; numbering on mature BMP-7) STGGKQRSQNRSKTPKNQEALRMASVAENSSSDQRQACKKHELYVSFRDLGWKDWIIAPEGYAAYYCEGECAFPLNSYMNATNHAIVQTLVHFINPETVPKPCCAPTQLNAISVLYFDDSSNVILKKYRNMVVRACGCH', '0.73 relative to wild type');
